- Measured Target: Butyrylcholinesterase (Rattus norvegicus)
- Sequence (Q9JKC1 whole entry): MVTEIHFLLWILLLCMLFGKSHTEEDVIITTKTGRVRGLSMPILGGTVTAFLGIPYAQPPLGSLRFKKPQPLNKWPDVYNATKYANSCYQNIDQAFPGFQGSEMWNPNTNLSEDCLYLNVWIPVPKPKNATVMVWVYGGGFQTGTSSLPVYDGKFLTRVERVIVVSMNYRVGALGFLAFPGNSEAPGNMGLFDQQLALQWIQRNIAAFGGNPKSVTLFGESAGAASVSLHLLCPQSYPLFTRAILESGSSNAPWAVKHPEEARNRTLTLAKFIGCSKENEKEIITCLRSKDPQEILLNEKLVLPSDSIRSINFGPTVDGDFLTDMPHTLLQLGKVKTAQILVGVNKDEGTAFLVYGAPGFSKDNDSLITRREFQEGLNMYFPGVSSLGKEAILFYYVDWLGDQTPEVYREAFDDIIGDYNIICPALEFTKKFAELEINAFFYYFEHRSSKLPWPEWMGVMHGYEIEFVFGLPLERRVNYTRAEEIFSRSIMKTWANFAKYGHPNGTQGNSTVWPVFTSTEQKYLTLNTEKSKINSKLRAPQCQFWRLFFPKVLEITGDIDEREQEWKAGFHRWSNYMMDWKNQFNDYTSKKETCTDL
- Test Protocol: Inhibition of BChE from rat serum by Ellmans method
One threshold, 40 µM, splits the recorded IC50 values: lower ones are 1, equal or higher ones are 0.

Sample answers from the record:
| Compound | Qualitative Label |
| --- | --- |
| COc1ccc2c3c1O[C@H]1C[C@@H](O)C=C[C@@]31CCN(CCCCOc1ccc(CN3CCCCC3)cc1)C2 | 1 |
| COc1ccc2c3c1O[C@H]1C[C@@H](O)C=C[C@@]31CCN(CCCCCCOc1cccc(C(C)N3CCOCC3)c1)C2 (stereo partly drawn) | 1 |
| COc1ccc2c3c1O[C@H]1C[C@@H](O)C=C[C@@]31CCN(CCCCCCCCOc1ccc(CN3CCCCC3)cc1)C2 | 0 |
| COc1ccc2c3c1O[C@H]1C[C@@H](O)C=C[C@@]31CCN(CCCCOc1ccc(CN3CCOCC3)cc1)C2 | 1 |
| COc1ccc2c3c1O[C@H]1C[C@@H](O)C=C[C@@]31CCN(CCCCCOc1ccc(CN3CCCCC3)cc1)C2 | 1 |
| COc1ccc2c3c1O[C@H]1C[C@@H](O)C=C[C@@]31CCN(CCCCCCCCCCOc1ccc(CN3CCCCC3)cc1)C2 | 0 |

*Q* Regarding COc1ccc2c3c1O[C@H]1C[C@@H](O)C=C[C@@]31CCN(CCCOc1ccc(CN3CCCCC3)cc1)C2 , kindly confirm whether its IC50 is beneath 40 µM.
*A* 1

###

Measured IC50 values are reported for all entries that follow.
- Measured Target: Butyrylcholinesterase (Rattus norvegicus)
- Test Protocol: Inhibition of BChE from rat serum by Ellmans method
Report the figure in µM without appending any unit label.

Examples with answers:
| Compound | IC50 (µM) |
| --- | --- |
| COc1ccc2c3c1O[C@H]1C[C@@H](O)C=C[C@@]31CCN(CCCCOc1cccc(C(C)N3CCOCC3)c1)C2 (stereo partly drawn) | 7.1 |
| CCN(CC)Cc1ccc(OCCCCN2CC[C@@]34C=C[C@H](O)C[C@@H]3Oc3c(OC)ccc(c34)C2)cc1 | 34 |

*Q* Tell me the measured IC50 of COc1ccc2c3c1O[C@H]1C[C@@H](O)C=C[C@@]31CCN(CCCCCCOc1ccc(CN3CCCCC3)cc1)C2 , please.
*A* 33

###

- Measured Target: Butyrylcholinesterase (Rattus norvegicus)
- Test Protocol: Inhibition of BChE from rat serum by Ellmans method
Measured IC50 values are reported for all entries that follow.
Report the figure in µM without appending any unit label.

| Entry Smiles | Readout Units | IC50 |
| --- | --- | --- |
| COc1ccc2c3c1O[C@H]1C[C@@H](O)C=C[C@@]31CCN(CCCCCCOc1ccc(C(=O)N3CCCC3)cc1)C2 | µM | 9.4 |
| COc1ccc2c3c1O[C@H]1C[C@@H](O)C=C[C@@]31CCN(CCCCCCCCCCCCOc1ccc(CN3CCCCC3)cc1)C2 | µM | 1.2 |
| COc1ccc2c3c1O[C@H]1C[C@@H](O)C=C[C@@]31CCN(CCCCCCOC1CCN(Cc3ccccc3)CC1)C2 | µM | 5.5 |
| COc1ccc2c3c1O[C@H]1C[C@@H](O)C=C[C@@]31CCN(CCCCOC1CCN(Cc3ccccc3)CC1)C2 | µM | 4.3 |
| COc1ccc2c3c1O[C@H]1C[C@@H](O)C=C[C@@]31CCN(CCCCCCCCCOc1ccc(CN3CCCCC3)cc1)C2 | µM | 64 |

*Q* Tell me the measured IC50 of COc1ccc2c3c1O[C@H]1C[C@@H](O)C=C[C@@]31CCN(CCCCOc1ccc(C(=O)N3CCCC3)cc1)C2 , please.
*A* 5.6

*Q* Tell me the measured IC50 of COc1ccc2c3c1O[C@H]1C[C@@H](O)C=C[C@@]31CCN(CCOc1ccc(CN3CCCCC3)cc1)C2 , please.
*A* 21

*Q* Tell me the measured IC50 of COc1ccc2c3c1O[C@H]1C[C@@H](O)C=C[C@@]31CCN(CCCCCCOc1ccc(CN3CCOCC3)cc1)C2 , please.
*A* 3.9

###

- Measured Target: UniProtKB P37136
- Sequence (P37136 whole entry): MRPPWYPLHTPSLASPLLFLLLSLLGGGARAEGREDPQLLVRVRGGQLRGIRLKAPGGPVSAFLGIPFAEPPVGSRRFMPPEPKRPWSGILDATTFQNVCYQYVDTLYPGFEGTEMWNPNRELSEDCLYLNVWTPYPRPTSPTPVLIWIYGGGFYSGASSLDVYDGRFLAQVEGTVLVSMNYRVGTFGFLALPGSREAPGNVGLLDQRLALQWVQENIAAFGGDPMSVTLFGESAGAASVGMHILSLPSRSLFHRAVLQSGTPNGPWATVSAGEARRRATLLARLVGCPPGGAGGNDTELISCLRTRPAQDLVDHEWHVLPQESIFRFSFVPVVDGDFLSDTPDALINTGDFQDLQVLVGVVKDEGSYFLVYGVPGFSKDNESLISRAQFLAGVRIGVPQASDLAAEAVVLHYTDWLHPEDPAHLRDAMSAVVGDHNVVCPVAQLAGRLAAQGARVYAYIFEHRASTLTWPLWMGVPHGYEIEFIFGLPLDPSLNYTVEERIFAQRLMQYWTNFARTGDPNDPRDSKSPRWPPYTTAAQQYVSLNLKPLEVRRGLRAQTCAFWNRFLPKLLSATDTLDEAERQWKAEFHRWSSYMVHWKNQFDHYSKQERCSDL
Measured IC50 values are reported for all entries that follow.
Report the figure in nM without appending any unit label.

Examples with answers:
| Entry Smiles | Measured Target | Readout Units | IC50 |
| --- | --- | --- | --- |
| COc1ccc2c3c1O[C@H]1C[C@@H](O)C=C[C@@]31CCN(CCOc1ccc(CN3CCCCC3)cc1)C2 | UniProtKB P37136 | nM | 24.5 |
| COc1ccc2c3c1O[C@H]1C[C@@H](O)C=C[C@@]31CCN(CCCCCCOc1ccc(CN3CCCCC3)cc1)C2 | UniProtKB P37136 | nM | 5.62 |
| COc1ccc2c3c1O[C@H]1C[C@@H](O)C=C[C@@]31CCN(CCCCCCOC1CCN(Cc3ccccc3)CC1)C2 | UniProtKB P37136 | nM | 222 |
| COc1ccc2c3c1O[C@H]1C[C@@H](O)C=C[C@@]31CCN(CCCCCCCCCOc1ccc(CN3CCCCC3)cc1)C2 | UniProtKB P37136 | nM | 88.1 |
| COc1ccc2c3c1O[C@H]1C[C@@H](O)C=C[C@@]31CCN(CCCCOc1ccc(CN3CCCCC3)cc1)C2 | UniProtKB P37136 | nM | 12.4 |

*Q* What reported IC50 corresponds to COc1ccc2c3c1O[C@H]1C[C@@H](O)C=C[C@@]31CCN(CCCOc1ccc(CN3CCCCC3)cc1)C2 on UniProtKB P37136?
*A* 18

*Q* What reported IC50 corresponds to CCN(CC)Cc1ccc(OCCCCN2CC[C@@]34C=C[C@H](O)C[C@@H]3Oc3c(OC)ccc(c34)C2)cc1 on UniProtKB P37136?
*A* 14.6

*Q* What reported IC50 corresponds to COc1ccc2c3c1O[C@H]1C[C@@H](O)C=C[C@@]31CCN(CCCCCCCCCCCCOc1ccc(CN3CCCCC3)cc1)C2 on UniProtKB P37136?
*A* 58.1

*Q* What reported IC50 corresponds to COc1ccc2c3c1O[C@H]1C[C@@H](O)C=C[C@@]31CCN(CCCCCCCCCCOc1ccc(CN3CCCCC3)cc1)C2 on UniProtKB P37136?
*A* 61.2

*Q* What reported IC50 corresponds to CCN(CC)Cc1ccc(OCCCCCCN2CC[C@@]34C=C[C@H](O)C[C@@H]3Oc3c(OC)ccc(c34)C2)cc1 on UniProtKB P37136?
*A* 8.86

###

- Measured Target: Acetylcholinesterase (Rattus norvegicus, UniProt P37136)
- Sequence (P37136 whole entry): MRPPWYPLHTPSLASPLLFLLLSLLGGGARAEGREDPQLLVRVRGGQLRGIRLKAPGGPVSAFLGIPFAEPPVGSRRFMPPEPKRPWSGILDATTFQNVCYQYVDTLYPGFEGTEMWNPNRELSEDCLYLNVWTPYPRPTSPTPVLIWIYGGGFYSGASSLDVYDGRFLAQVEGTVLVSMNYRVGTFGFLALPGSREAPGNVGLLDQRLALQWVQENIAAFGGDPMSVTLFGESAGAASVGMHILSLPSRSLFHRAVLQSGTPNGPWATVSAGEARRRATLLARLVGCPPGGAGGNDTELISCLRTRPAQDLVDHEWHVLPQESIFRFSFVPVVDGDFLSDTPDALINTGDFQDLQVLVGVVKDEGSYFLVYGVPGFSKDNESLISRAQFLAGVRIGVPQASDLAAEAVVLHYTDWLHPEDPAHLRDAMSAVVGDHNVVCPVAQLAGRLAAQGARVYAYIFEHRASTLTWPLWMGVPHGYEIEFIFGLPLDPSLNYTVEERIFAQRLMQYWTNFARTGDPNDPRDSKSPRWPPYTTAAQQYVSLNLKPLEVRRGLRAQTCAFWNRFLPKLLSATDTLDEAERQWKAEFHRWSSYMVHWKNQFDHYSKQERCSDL
pIC50: −log10 of the molar value.
Label true when pIC50 >= 7; otherwise false.

Sample answers from the record:
| Entry Smiles | Qualitative Label |
| --- | --- |
| COc1ccc2c3c1O[C@H]1C[C@@H](O)C=C[C@@]31CCN(CCCCCCCCOc1ccc(CN3CCCCC3)cc1)C2 | true |
| COc1ccc2c3c1O[C@H]1C[C@@H](O)C=C[C@@]31CCN(CCCCOc1ccc(C(=O)N3CCCC3)cc1)C2 | true |

Turning now to a further record.
*Q* Would you say COc1ccc2c3c1O[C@H]1C[C@@H](O)C=C[C@@]31CCN(CCCCOC1CCN(Cc3ccccc3)CC1)C2 shows pIC50 at minimum 7?
*A* false
